For each entry below, report its IC50 value.
Biological target: Histone deacetylase 8 (Homo sapiens)
Sequence (Q9BY41 whole entry): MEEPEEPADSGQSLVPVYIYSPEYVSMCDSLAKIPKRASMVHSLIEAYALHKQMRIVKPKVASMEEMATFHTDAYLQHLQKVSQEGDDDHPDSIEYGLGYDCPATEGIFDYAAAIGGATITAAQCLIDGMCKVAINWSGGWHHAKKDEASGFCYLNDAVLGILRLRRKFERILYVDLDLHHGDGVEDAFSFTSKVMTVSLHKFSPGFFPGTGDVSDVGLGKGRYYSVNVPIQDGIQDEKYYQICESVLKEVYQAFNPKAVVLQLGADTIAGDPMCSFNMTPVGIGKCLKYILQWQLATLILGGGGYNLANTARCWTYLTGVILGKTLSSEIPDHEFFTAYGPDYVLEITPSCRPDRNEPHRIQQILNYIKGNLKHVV

Item: `O=C(CC[C@@H]1N=C(c2ccccc2)c2ccccc2NC1=O)NC(c1ccccc1)(c1ccccc1)c1ccccc1` Test system: Histone deacetylase 8 (Homo sapiens) Read-out: IC50 Value: ?
> 30 µM

Write down the reported IC50 of `COC(=O)CCCCN1C(=O)[C@H](C(C)C)N=C(c2ccccc2)c2ccccc21` , test system: Histone deacetylase 8 (Homo sapiens).
> 30 µM

Fill in the recorded IC50 for this compound, with Histone deacetylase 8 (Homo sapiens) as test system: `CC(C)[C@@H]1N=C(c2ccccc2)c2ccccc2N(CCCCC(=O)NO)C1=O`
19.8 µM

Tell me reported IC50 for `N=C(N)NCCC[C@@H]1N=C(c2ccccc2)c2ccccc2N(CCCCC(=O)NO)C1=O` , tested with Histone deacetylase 8 (Homo sapiens).
> 30 µM

Param readout= IC50; system= Histone deacetylase 8 (Homo sapiens); entry= `O=C(CCCCN1C(=O)[C@H](CO)N=C(c2ccccc2)c2ccccc21)NO` ; returns value.
> 30 µM

----------
Molecular target: Histone deacetylase 1 (Homo sapiens)
Test: Inhibition of human KDAC1 at 30 uM using substrate A after 60 mins by fluorescence assay relative to control
Lab note: compare inhibition against 2%. Equal or greater, write y. Smaller, write n.

Item `CC[C@@H](C)[C@@H]1N=C(c2ccccc2)c2ccccc2N(CCCCC(=O)NO)C1=O` with inhibition of 2% or above?
y

API: above_or_equal(metric=inhibition, cutoff=2%) for item `COC(=O)CCCCN1C(=O)[C@H](Cc2cc3ccccc3n2C(=O)OC(C)(C)C)N=C(c2ccccc2)c2ccccc21`
n

Assess whether reported inhibition for `CSCC[C@@H]1N=C(c2ccccc2)c2ccccc2NC1=O` sits at 2% or higher.
n

For this compound, is measured inhibition 2% or higher? `Cc1c(C)c(S(=O)(=O)NC(=N)NCCC[C@@H]2N=C(c3ccccc3)c3ccccc3N(CCCCC(=O)NO)C2=O)c(C)c2c1OC(C)(C)C2`
y

hey, is inhibition for this one >= 2%? `CC(C)C[C@@H]1N=C(c2ccccc2)c2ccccc2N(CCCCC(=O)NO)C1=O`
y

----------
The reader will find pIC50 measurements below, all made with Histone deacetylase 3 (Homo sapiens, UniProt O15379).
Sequence (O15379 whole entry): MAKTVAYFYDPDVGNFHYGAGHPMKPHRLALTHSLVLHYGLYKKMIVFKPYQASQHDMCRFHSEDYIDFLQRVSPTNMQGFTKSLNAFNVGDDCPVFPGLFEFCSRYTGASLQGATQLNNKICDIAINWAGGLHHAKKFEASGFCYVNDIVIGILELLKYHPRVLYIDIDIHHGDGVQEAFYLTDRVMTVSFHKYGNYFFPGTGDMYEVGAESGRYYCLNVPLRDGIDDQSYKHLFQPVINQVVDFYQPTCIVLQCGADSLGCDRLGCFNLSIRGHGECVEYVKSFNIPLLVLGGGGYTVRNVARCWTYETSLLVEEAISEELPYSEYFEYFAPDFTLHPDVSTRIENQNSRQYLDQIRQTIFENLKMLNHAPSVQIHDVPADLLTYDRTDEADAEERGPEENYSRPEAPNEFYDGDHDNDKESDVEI
Note: pIC50 values are expressed as the negative base-10 logarithm of concentration in M.

So what does the record say about pIC50 for `O=C(CCCCN1C(=O)[C@H](CCC(=O)NC(c2ccccc2)(c2ccccc2)c2ccccc2)N=C(c2ccccc2)c2ccccc21)NO` ?
6.08

Report pIC50 for `CC(C)[C@@H]1N=C(c2ccccc2)c2ccccc2N(CCCCC(=O)NO)C1=O` please.
6.22

----------
Molecular target: Histone deacetylase 8 (Homo sapiens)
Test: Inhibition of human KDAC8 at 30 uM after 60 mins by fluorescence assay relative to control
Field: inhibition. Provide a value for each of the molecules that follow.
Report only the number, with the unit % understood.

Value lookup for inhibition; key = `O=C(CCCCN1C(=O)[C@H](Cc2cnc[nH]2)N=C(c2ccccc2)c2ccccc21)NO`
42.4

# get_value(readout='inhibition', item= `CC(C)(C)Oc1ccc(C[C@@H]2N=C(c3ccccc3)c3ccccc3NC2=O)cc1` )
0

State the recorded inhibition for this entry: `CC(C)[C@@H]1N=C(c2ccccc2)c2ccccc2NC1=O`
0

// query inhibition value for entry `CC(C)(C)OC(=O)CC[C@@H]1N=C(c2ccccc2)c2ccccc2NC1=O`
1.79

Give the measured inhibition of `COC(=O)CCCCN1C(=O)[C@H](Cc2ccc(OC(C)(C)C)cc2)N=C(c2ccccc2)c2ccccc21` .
0

What does the data say about its inhibition? Entry: `COC(=O)CCCCN1C(=O)[C@H](C(C)C)N=C(c2ccccc2)c2ccccc21`
9.56

Query (molecule): `O=C(CCCCN1C(=O)[C@H](Cc2ccc(O)cc2)N=C(c2ccccc2)c2ccccc21)NO` ; field requested: inhibition
14.9

Name the reported inhibition value associated with the molecule `COC(=O)CCCCN1C(=O)[C@H](CC(=O)OC(C)(C)C)N=C(c2ccccc2)c2ccccc21`
0

Can you look up the measured inhibition of `O=C(O)C[C@H]1N=C(c2ccccc2)c2ccccc2NC1=O` for me?
0

Which measured inhibition value corresponds to `O=C(O)C[C@@H]1N=C(c2ccccc2)c2ccccc2N(CCCCC(=O)NO)C1=O` ?
39.4

Requested read-out: inhibition. Entry: `CC(C)C[C@@H]1N=C(c2ccccc2)c2ccccc2N(CCCCC(=O)O)C1=O`
7

Name the reported inhibition value associated with the molecule `O=C(O)CCCCN1C(=O)[C@H](Cc2ccccc2)N=C(c2ccccc2)c2ccccc21`
6.22

Given `O=C1Nc2ccccc2C(c2ccccc2)=N[C@H]1Cc1cn(C(c2ccccc2)(c2ccccc2)c2ccccc2)cn1` , state its recorded inhibition.
13.4

Looking for the measured inhibition of `O=C(C[C@H]1N=C(c2ccccc2)c2ccccc2NC1=O)NO` , can you help?
19

Fill in the blank: the reported inhibition of `O=C(O)CCCCN1C(=O)[C@H](CC(=O)NC(c2ccccc2)(c2ccccc2)c2ccccc2)N=C(c2ccccc2)c2ccccc21` is ____.
11.4

Request the reported inhibition associated with `CC(C)(C)OC(=O)n1cc(C[C@@H]2N=C(c3ccccc3)c3ccccc3NC2=O)c2ccccc21`
0

Reported inhibition, molecule `CC(C)(C)OC(=O)C[C@@H]1N=C(c2ccccc2)c2ccccc2N(CCCCC(=O)NO)C1=O` : ____
62.3

Given `CC(C)(C)OC(=O)n1c(C[C@@H]2N=C(c3ccccc3)c3ccccc3N(CCCCC(=O)NO)C2=O)cc2ccccc21` , state its recorded inhibition.
79.7

Look up inhibition for this molecule: `CC(C)(C)Oc1ccc(C[C@@H]2N=C(c3ccccc3)c3ccccc3N(CCCCC(=O)O)C2=O)cc1`
2.15

----------
Biological target: UniProt Q13547
Assay: Inhibition of human KDAC1 at 30 uM using substrate A after 60 mins by fluorescence assay relative to control
recorded-endpoint: inhibition (%)
# output: bare number, implied unit %

// query inhibition value for entry `C[C@@H]1N=C(c2ccccc2)c2ccccc2N(CCCCC(=O)NO)C1=O`
68.4

State the recorded inhibition for this entry: `C[C@@H](O)[C@@H]1N=C(c2ccccc2)c2ccccc2N(CCCCC(=O)NO)C1=O`
66.5

Which measured inhibition value corresponds to `O=C(O)CCCCN1C(=O)[C@H](Cc2cncn2C(c2ccccc2)(c2ccccc2)c2ccccc2)N=C(c2ccccc2)c2ccccc21` ?
7.49

Find the recorded inhibition belonging to `CC[C@H](C)[C@@H]1N=C(c2ccccc2)c2ccccc2N(CCCCC(=O)OC)C1=O` and report it.
2.83

Need inhibition of `O=C(C[C@@H]1N=C(c2ccccc2)c2ccccc2NC1=O)NC(c1ccccc1)(c1ccccc1)c1ccccc1` , thanks.
4.31

Return reported inhibition; argument: `CSCC[C@@H]1N=C(c2ccccc2)c2ccccc2N(CCCCC(=O)O)C1=O`
4.46

Give its inhibition value. Item: `O=C(CC[C@@H]1N=C(c2ccccc2)c2ccccc2NC1=O)NO`
64.4

Please give the measured inhibition for this compound: `O=C(CCCCN1C(=O)CN=C(c2ccccc2)c2ccccc21)NO`
88.3

Would you mind telling me what inhibition value was observed for `COC(=O)CCCCN1C(=O)[C@H](CCCCNC(=O)OC(C)(C)C)N=C(c2ccccc2)c2ccccc21` ?
8.22

----------
Target: Histone deacetylase 1 (Homo sapiens, UniProt Q13547)
Sequence (Q13547 whole entry): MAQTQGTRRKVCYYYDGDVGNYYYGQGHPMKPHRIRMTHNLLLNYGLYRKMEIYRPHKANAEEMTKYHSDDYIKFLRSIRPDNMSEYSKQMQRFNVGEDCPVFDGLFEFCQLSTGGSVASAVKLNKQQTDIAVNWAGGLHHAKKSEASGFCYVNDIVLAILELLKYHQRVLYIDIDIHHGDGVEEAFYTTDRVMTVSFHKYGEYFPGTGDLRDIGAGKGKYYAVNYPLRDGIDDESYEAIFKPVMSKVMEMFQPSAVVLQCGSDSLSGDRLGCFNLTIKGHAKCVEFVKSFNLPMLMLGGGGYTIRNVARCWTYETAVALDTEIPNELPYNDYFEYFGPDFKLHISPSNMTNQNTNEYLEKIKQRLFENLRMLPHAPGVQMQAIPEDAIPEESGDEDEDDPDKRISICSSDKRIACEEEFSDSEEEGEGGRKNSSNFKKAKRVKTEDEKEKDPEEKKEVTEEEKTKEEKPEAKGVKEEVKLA
Assay: Inhibition of human KDAC1 at 30 uM using substrate A after 60 mins by fluorescence assay relative to control
Assignment: determine reported inhibition for the given compounds.
Field: numeric (%). Do not append units.

Reported inhibition for `CC(C)(C)OC(=O)NCCCC[C@@H]1N=C(c2ccccc2)c2ccccc2N(CCCCC(=O)O)C1=O` : what is it?
6

Entry `NCCCC[C@@H]1N=C(c2ccccc2)c2ccccc2N(CCCCC(=O)NO)C1=O` : reported inhibition = ?
79.5

Suppose we examine the compound `COC(=O)CCCCN1C(=O)[C@H](CCC(=O)OC(C)(C)C)N=C(c2ccccc2)c2ccccc21` ; what inhibition value has been reported?
2.72

Entry `O=C(O)C[C@@H]1N=C(c2ccccc2)c2ccccc2N(CCCCC(=O)NO)C1=O` has what inhibition?
47.9

Which inhibition reading was recorded for the compound `CC(C)(C)OC(=O)NCCCC[C@@H]1N=C(c2ccccc2)c2ccccc2N(CCCCC(=O)NO)C1=O` ?
84.4

Suppose we examine the compound `C[C@@H]1N=C(c2ccccc2)c2ccccc2N(CCCCC(=O)O)C1=O` ; what inhibition value has been reported?
11.3

inhibition lookup needed for `CC(C)C[C@@H]1N=C(c2ccccc2)c2ccccc2NC1=O` , thanks.
2.85

# inhibition lookup, item `O=C(CCCCN1C(=O)[C@H](CCC(=O)NC(c2ccccc2)(c2ccccc2)c2ccccc2)N=C(c2ccccc2)c2ccccc21)NO`
78.7

Which inhibition is listed for `CC(C)[C@@H]1N=C(c2ccccc2)c2ccccc2N(CCCCC(=O)O)C1=O` ?
2.24
